Origin of values: paper PMC5540273

%Inh values for the molecules below.
Test system: CLK4
Conditions: concentration: 1 μM, replicates: in singlicate; n = 1
Write the value in % as a bare number.

// below: answered molecules
{"smiles": "COc1ccccc1-c1ccc2c(NC(=O)C3CC3)n[nH]c2n1", "readoutType": "%Inh", "unitText": "%", "numericResult": 33}
{"smiles": "Fc1cc(Cl)ccc1Nc1ccnc2cc(I)ccc12", "readoutType": "%Inh", "unitText": "%", "numericResult": 5}
{"smiles": "C[C@@H]1CCCCN1c1cc(-c2ccc3c(N)n[nH]c3c2)nc(N)n1", "readoutType": "%Inh", "unitText": "%", "numericResult": 13}
{"smiles": "O=c1cc(N2CCOCC2)nc2n(Cc3cccc(Cl)c3Cl)ccn12", "readoutType": "%Inh", "unitText": "%", "numericResult": 51}

Now consider a different molecule.
Challenge: # returns recorded %Inh (system: CLK4) for O=C(O)COc1ncnc2cc(-c3ccc4[nH]ncc4c3)sc12;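 also: KINOMEscan kinase panel screen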
Response given: 79
